assay: logP determination by reversed-phase HPLC (EEC Directive 79/831 Annex V.A8); settings: method [a]: pH 2.3, 0,1% aqueous phosphoric acid and acetonitrile, linear gradient 10 to 95% acetonitrile
measure: log p

                                    compound     observed_value
 0  CSC[C@H](C)NC(=O)c1c(I)cccc1C(=O)Nc1ccc(C(C(F)F)C(F)(F)F)cc1Br (stereo partly shown)               3,51
 1  CCSC[C@H](C)NC(=O)c1c(I)cccc1C(=O)Nc1ccc(C(C(F)F)C(F)(F)F)cc1F (stereo partly shown)  3,57^[a] 3,57^[c]
 2  Cc1c(NC(=O)c2cccc(Br)c2C(=O)N[C@@H](C)CS(C)(=O)=O)ccc(C(F)(F)C(F)(F)F)c1F           2,86^[a]
 3  CCS(=O)(=O)C[C@H](C)NC(=O)c1c(I)cccc1C(=O)Nc1ccc(C(C(F)F)C(F)(F)F)cc1F (stereo partly shown)               2,65
 4  CCSC[C@H](C)NC(=O)c1c(I)cccc1C(=O)Nc1ccc(C(F)(C(F)F)C(F)(F)F)cc1C (stereo partly shown)  3,96^[a] 3,96^[c]
 5  CCS(=O)(=O)C[C@H](C)NC(=O)c1c(I)cccc1C(=O)Nc1ccc(C(F)(C(F)F)C(F)(F)F)cc1F (stereo partly shown)               2,89
 6  CCS(=O)(=O)C[C@H](C)NC(=O)c1c(I)cccc1C(=O)Nc1ccc(C(F)(C(F)(F)F)C(F)(F)F)c(F)c1C           3,47^[a]
 7  Cc1c(NC(=O)c2cccc(I)c2C(=O)N[C@@H](C)C[S+](C)[O-])ccc(C(F)(C(F)(F)F)C(F)(F)F)c1F (stereo partly shown)           2,78^[a]
 8  CCSC[C@H](C)NC(=O)c1c(I)cccc1C(=O)Nc1ccc(C(C(F)F)C(F)(F)F)cc1C (stereo partly shown)               3,63
 9  CSC[C@H](C)NC(=O)c1c(Br)cccc1C(=O)Nc1ccc(C(F)(C(F)F)C(F)(F)F)cc1Br (stereo partly shown)           3,81^[a]
10  CCS(=O)(=O)C[C@H](C)NC(=O)c1c(Br)cccc1C(=O)Nc1ccc(C(F)(F)C(F)(F)F)c(Cl)c1C           3,19^[a]
11  C[C@@H](CS(C)(=O)=O)NC(=O)c1c(I)cccc1C(=O)Nc1ccc(C(C(F)F)C(F)(F)F)cc1Cl (stereo partly shown)               2,69
12  CSC[C@H](C)NC(=O)c1c(I)cccc1C(=O)Nc1ccc(C(F)(F)C(F)(F)F)c(Cl)c1C            4,2^[a]
13  Cc1cc(C(C(F)(F)F)C(F)(F)F)c(F)cc1NC(=O)c1cccc(Br)c1C(=O)N[C@@H](C)C[S+](C)[O-] (stereo partly shown)               2,58
14  CC[S+]([O-])C[C@H](C)NC(=O)c1c(I)cccc1C(=O)Nc1ccc(C(F)(C(F)(F)F)C(F)(F)F)c(F)c1C (stereo partly shown)           2,97^[a]
15  CCS(=O)(=O)C[C@H](C)NC(=O)c1c(Cl)cccc1C(=O)Nc1ccc(C(F)(F)C(F)(F)F)c(F)c1C           3,01^[a]
16  CCSC[C@H](C)NC(=O)c1c(I)cccc1C(=O)Nc1ccc(C(F)(C(F)(F)F)C(F)(F)Br)cc1C (stereo partly shown)               4,68
17  CCSC[C@H](C)NC(=O)c1c(I)cccc1C(=O)Nc1ccc(C(C(F)F)C(F)(F)F)cc1Cl (stereo partly shown)               3,76
18  CSC[C@H](C)NC(=O)c1c(Br)cccc1C(=O)Nc1ccc(C(F)(C(F)(F)F)C(F)(F)F)c(F)c1C           4,31^[a]
19  Cc1c(NC(=O)c2cccc(I)c2C(=O)N[C@@H](C)CS(C)(=O)=O)ccc(C(F)(C(F)(F)F)C(F)(F)F)c1F           3,27^[a]
20  C[C@@H](CS(C)(=O)=O)NC(=O)c1c(I)cccc1C(=O)Nc1ccc(C(F)(C(F)F)C(F)(F)F)cc1F (stereo partly shown)               2,72
21  CCSC[C@H](C)NC(=O)c1c(I)cccc1C(=O)Nc1ccc(C(C(F)F)C(F)(F)F)cc1Br (stereo partly shown)               3,78
